Entry source: paper PMC5656653

- METHOD NOTES: Biodistribution experiments in normal mice after i.v. injection
- Assay type: in vivo
- COND: male, ddY, mouse, in vivo, iv, total radioactivity, mice, i.v., 180 min after injection, mean (SD); read-out: Biodistribution of radioactivity, Kidney
Where a SMILES comes first, the peptide text is derived from it. [ ]: non-standard residue; d: D form. The star is where a group is joined. DOTA = O=C(O)CN1CCN(CC(=O)O)CCN(CC(=O)*)CCN(CC(=O)O)CC1
METRIC: tissue uptake dose at 3 h (%ID)

INSERT INTO assay_data (compound, display_unit, recorded_result) VALUES
  ('O=C(O)C[C@@H](NC(=O)[C@@H](CC(=O)O)NC(=O)[C@@H](CC(=O)O)NC(=O)[C@@H](CC(=O)O)NC(=O)[C@@H](CC(=O)O)NC(=O)[C@@H](CC(=O)O)NC(=O)[C@@H](CC(=O)O)NC(=O)[C@@H](CC(=O)O)NC(=O)[C@@H](CC(=O)O)NC(=O)[C@@H](CC(=O)O)NC(=O)[C@@H](CC(=O)O)NC(=O)CN1CCN(CC(=O)O)CCN(CC(=O)O)CCN(CC(=O)O)CC1)C(=O)O [^67Ga-DOTA-(D-Asp)11, metal not drawn] ({DOTA}-[dD][dD][dD][dD][dD][dD][dD][dD][dD][dD][dD]-OH)', '%ID', 1);
